# targetDesc: Somatostatin receptor type 5 (Homo sapiens, UniProt P35346)
# Sequence (P35346 whole entry): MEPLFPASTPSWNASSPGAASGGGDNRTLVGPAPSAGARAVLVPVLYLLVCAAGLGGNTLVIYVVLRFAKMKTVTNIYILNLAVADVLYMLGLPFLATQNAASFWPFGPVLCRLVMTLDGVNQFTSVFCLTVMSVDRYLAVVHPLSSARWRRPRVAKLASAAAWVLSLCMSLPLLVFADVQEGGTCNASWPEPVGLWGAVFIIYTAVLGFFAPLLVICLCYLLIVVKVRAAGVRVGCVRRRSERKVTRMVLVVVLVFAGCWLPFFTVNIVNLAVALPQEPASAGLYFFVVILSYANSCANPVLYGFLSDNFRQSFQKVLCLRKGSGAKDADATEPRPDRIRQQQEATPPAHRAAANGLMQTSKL
Positions of bridges follow the written chain, without caps; N, C: chain ends. Non-standard residues stand in square brackets, D forms with d. Residues, ends and D or L forms follow the SMILES beside them. NMePhe(4-CH2NHiPr) = CN[C@@H](Cc1ccc(CNC(C)C)cc1)C(=O)O; Phe(4-CH2NHiPr) = CC(C)NCc1ccc(C[C@H](N)C(=O)O)cc1; d2Nal = N[C@H](Cc1ccc2ccccc2c1)C(=O)O
Provide the reported IC50 of each item.

Ask | // returns reported IC50 for input CC(C)NCc1ccc(C[C@H]2C(=O)N[C@@H]([C@@H](C)O)C(=O)N[C@@H](Cc3ccccc3)C(=O)N[C@@H]([C@@H](C)O)C(=O)N[C@@H](CO)C(=O)N[C@H](C(=O)O)CSSC[C@H](N)C(=O)N[C@@H](CCCCN)C(=O)N[C@@H](Cc3ccccc3)C(=O)N[C@@H](Cc3ccccc3)C(=O)N[C@H](Cc3c[nH]c4ccccc34)C(=O)N2C)cc1 (H-CKFF[dW][NMePhe(4-CH2NHiPr)]TFTSC-OH; disulfide 1-11)
Reply | > 1000 nM

Ask | Subsequent entry: CC(C)NCc1ccc(C[C@@H]2NC(=O)[C@@H](Cc3ccc4ccccc4c3)NC(=O)[C@H](Cc3ccccc3)NC(=O)[C@H](Cc3ccccc3)NC(=O)[C@H](CCCCN)NC(=O)[C@@H](N)CSSC[C@@H](C(=O)O)NC(=O)[C@H](CO)NC(=O)[C@H]([C@@H](C)O)NC(=O)[C@H](Cc3ccccc3)NC(=O)[C@H]([C@@H](C)O)N(C)C2=O)cc1
Reply | > 1000 nM

Ask | What would you report for CC(C)NCc1ccc(C[C@@H]2NC(=O)[C@@H](Cc3c[nH]c4ccccc34)NC(=O)[C@H](Cc3ccccc3)NC(=O)[C@H](Cc3ccccc3)NC(=O)[C@H](CCCCN)NC(=O)[C@@H](N)CSSC[C@@H](C(=O)N[C@@H](CCCCN)C(=O)O)N(C)C(=O)[C@H](CO)NC(=O)[C@H]([C@@H](C)O)NC(=O)[C@H](Cc3ccccc3)NC(=O)[C@H]([C@@H](C)O)NC2=O)cc1 ?
Reply | > 1000 nM

Ask | Then CC(C)NCc1ccc(C[C@H]2C(=O)N[C@@H]([C@@H](C)O)C(=O)N[C@@H](Cc3ccc(O)cc3)C(=O)N[C@@H]([C@@H](C)O)C(=O)N[C@@H](CO)C(=O)N[C@H](C(=O)O)CSSC[C@H](N)C(=O)N[C@@H](CCCCN)C(=O)N[C@@H](Cc3ccccc3)C(=O)N[C@@H](Cc3ccccc3)C(=O)N[C@H](Cc3c[nH]c4ccccc34)C(=O)N2C)cc1 (H-CKFF[dW][NMePhe(4-CH2NHiPr)]TYTSC-OH; disulfide 1-11) ?
Reply | > 1000 nM

Ask | // query: CC(C)NCc1ccc(C[C@H]2C(=O)N[C@@H]([C@@H](C)O)C(=O)N[C@@H](Cc3ccccc3)C(=O)N[C@@H]([C@@H](C)O)C(=O)N[C@@H](CO)C(=O)N[C@H](C(=O)O)CSSC[C@H](N)C(=O)N[C@@H](CCCCN)C(=O)N[C@@H](Cc3ccccc3)C(=O)N[C@@H](Cc3ccccc3)C(=O)N[C@H](Cc3ccc4ccccc4c3)C(=O)N2C)cc1 (H-CKFF[d2Nal][NMePhe(4-CH2NHiPr)]TFTSC-OH; disulfide 1-11)
Reply | > 1000 nM

Ask | Another compound: CC(C)NCc1ccc(C[C@@H]2NC(=O)[C@@H](Cc3ccc4ccccc4c3)NC(=O)[C@H](Cc3ccccc3)NC(=O)[C@H](Cc3ccccc3)NC(=O)[C@H](CCCCN)NC(=O)[C@@H](N)CSSC[C@@H](C(=O)O)NC(=O)[C@H](CO)NC(=O)[C@H]([C@@H](C)O)N(C)C(=O)[C@H](Cc3ccccc3)NC(=O)[C@H]([C@@H](C)O)NC2=O)cc1
Reply | > 1000 nM

Ask | Now consider CC(C)NCc1ccc(C[C@@H]2NC(=O)[C@@H](Cc3ccc4ccccc4c3)NC(=O)[C@H](Cc3ccccc3)NC(=O)[C@H](Cc3ccccc3)NC(=O)[C@H](CCCCN)NC(=O)[C@@H](N)CSSC[C@@H](C(=O)N[C@@H](CCCCN)C(=O)O)N(C)C(=O)[C@H](CO)NC(=O)[C@H]([C@@H](C)O)NC(=O)[C@H](Cc3ccccc3)NC(=O)[C@H]([C@@H](C)O)NC2=O)cc1 and answer again.
Reply | > 1000 nM

Ask | Thanks! And CC(C)NCc1ccc(C[C@@H]2NC(=O)[C@@H](Cc3ccc4ccccc4c3)NC(=O)[C@H](Cc3ccccc3)NC(=O)[C@H](Cc3ccccc3)NC(=O)[C@H](CCCCN)NC(=O)[C@@H](N)CSSC[C@@H](C(=O)O)NC(=O)[C@H](CO)NC(=O)[C@H]([C@@H](C)O)NC(=O)[C@H](Cc3ccccc3)NC(=O)[C@H]([C@@H](C)O)NC2=O)cc1 (H-CKFF[d2Nal][Phe(4-CH2NHiPr)]TFTSC-OH; disulfide 1-11) ?
Reply | > 1000 nM

Ask | Quick one: CC(C)NCc1ccc(C[C@@H]2NC(=O)[C@H](Cc3c[nH]c4ccccc34)NC(=O)[C@H](Cc3ccccc3)NC(=O)[C@H](Cc3ccccc3)NC(=O)[C@H](CCCCN)NC(=O)[C@@H](N)CSSC[C@@H](C(=O)O)NC(=O)[C@H](CO)NC(=O)[C@H]([C@@H](C)O)NC(=O)[C@H](Cc3ccc(O)cc3)NC(=O)[C@H]([C@@H](C)O)NC2=O)cc1 (H-CKFFW[Phe(4-CH2NHiPr)]TYTSC-OH; disulfide 1-11)
Reply | > 1000 nM

Ask | Next: CC(C)NCc1ccc(C[C@@H]2NC(=O)[C@@H](Cc3ccc4ccccc4c3)NC(=O)[C@H](Cc3ccccc3)NC(=O)[C@H](Cc3ccccc3)NC(=O)[C@H](CCCCN)NC(=O)[C@@H](N)CSSC[C@@H](C(=O)O)NC(=O)[C@H](CO)N(C)C(=O)[C@H]([C@@H](C)O)NC(=O)[C@H](Cc3ccccc3)NC(=O)[C@H]([C@@H](C)O)NC2=O)cc1
Reply | > 1000 nM

Ask | Continue with CC(C)NCc1ccc(C[C@@H]2NC(=O)[C@@H](Cc3ccc4ccccc4c3)NC(=O)[C@H](Cc3ccccc3)NC(=O)[C@H](Cc3ccccc3)NC(=O)[C@H](CCCCN)NC(=O)[C@@H](N)CSSC[C@@H](C(=O)O)N(C)C(=O)[C@H](CO)NC(=O)[C@H]([C@@H](C)O)NC(=O)[C@H](Cc3ccccc3)NC(=O)[C@H]([C@@H](C)O)NC2=O)cc1
Reply | > 1000 nM

Ask | Repeat for the following compound: CC(C)NCc1ccc(C[C@@H]2NC(=O)[C@@H](Cc3ccc4ccccc4c3)N(C)C(=O)[C@H](Cc3ccccc3)NC(=O)[C@H](Cc3ccccc3)NC(=O)[C@H](CCCCN)NC(=O)[C@@H](N)CSSC[C@@H](C(=O)O)NC(=O)[C@H](CO)NC(=O)[C@H]([C@@H](C)O)NC(=O)[C@H](Cc3ccccc3)NC(=O)[C@H]([C@@H](C)O)NC2=O)cc1
Reply | > 1000 nM
